Measure name: MDR1-MDCK efflux ratio

- Molecular string: "Nc1ncc(C(=O)NC2CN(C(=O)C3CC3)C2)c2ccc(-c3cccc(F)c3)nc12"
  MDR1-MDCK efflux ratio: 18.1

A: c1ccc(-c2ncc(CNc3ncccn3)s2)nc1
B: CC(C)(C)OC(=O)NCCCC(=O)N[C@H]1C[C@@H](n2cnc3c(NCc4ccccc4)ncnc32)[C@@H](O)[C@H]1O
C: COCC(=O)Nc1cc(C#N)cn1C(C)(C)C
**Query** Sort by MDR1-MDCK efflux ratio, descending. Thanks in advance for listing the labels in the requested order.
**Result** B, C, A

1: CCCc1nnc(NCc2cn3ccc(C)cc3n2)o1
2: CN(C)c1ccncc1CN1CCN(c2ccc(C(N)=O)cc2)CC1
**Query** Of the two listed items, 1 and 2 , which carries the larger MDR1-MDCK efflux ratio figure? // output: label of the selected item
**Result** 2
(2: 18.8, 1: 3.5)
